- Test system: MS2 coat protein
- Run description: apparent KD of MS2 coat protein, switch ON state; designed switch direction (-1 OFF switch, 1 ON switch): -1; higher = weaker reporter binding
- Settings: FMN input: 0 or 200 uM; Eterna round: R93 (includes R88 designs)
Each entry falls into one class according to its apparent KD of MS2 coat protein; the ranges are low value = under 30 nM, medium value = from 30 nM up to 50 nM, high value = 50 nM and over

GAAAACAUAGGAUAUACAUGAGGAUCACCCAUGUUAAAAUAAAGAAAGGGAGAAAUAAGUAGAAGGAUGAAAAA [Mat - Mod of Meechl] = low value
AAGUUGACAGGAUAUACUUGGGCAACAAAUAAACUAAUAUAACAUGAGGAUCACCCAUGUAGAAGGGUCAGAAA [JR_Exc002_Sub207] = medium value
GGAGGCCAAGGAUAUACAUGAGGAUCACCCAUGUGAGAGAAAAAAGUGAGAAAGAAAAGUAGAAGGUGGUUUCG [salish99-ex3-129] = high value
AAGGGACAUGAGGAUCACCCAUGUGAGGAUAUGAUGCGAAUAAAGAAAGAAUAAAGCAUCAGAAGGCACACCAA [Mat - Exclusion 1 - Eli mod - D66] = high value
AGCUAGUCAGGAUAUACGAACAUGUAAAAAGACGUGAAGGGACAUGAGGAUCACCCAUGUAGAAGGGACUAGCA [74%, Web mod - With 1 less C's] = medium value
ACAGUUACAGGAUAUACAUAGGAAAAAAAAAAAAAAAUUCAACAUGAGGAUCACCCAUGUAGAAGGGUAACUGA [Ex2 Design 173: Random 2B] = high value

In: State the class of the sequence shown: AAGUCCAUAGGAUAUAUAUGGAUAUACAUUUAUGUAGAACUACAUGAGGAUCACCCAUGUAGAAGGAUGGAAUA [Mat - Same state - Mayanna Mod - D141]
Out: low value

In: Hello team, could you let me know which band the following sequence falls into: AAAGAUACAGGAUAUACAUGAGGAUCACCCAUGUGGAAUCUAAAAUGGGAAAAAGAAAGUAGAAGGGUAUAAAA [Ex 3 May 39]
Out: medium value

In: Hi there! Could you help me figure out the category for GAUAGUGAAGGAUAUACUGGAGGAGUGCGAUAGAAGCAAGAACAUGAGGAUCACCCAUGUAGAAGGUCAGAAGU [JR_Exc002_Sub1224] please?
Out: low value

In: Using the reported apparent KD of MS2 coat protein, which band applies to AGGGAGUAAGGAUAUCGGAAAGGACACGAAAGUGACAAAGACGAGAAGGUACAUGAGGAUCACCCAUGUAAAAA [milkweed 24] ?
Out: medium value

In: Which of the defined bands does the recorded apparent KD of MS2 coat protein of AACUGACAUGAGGAUCACCCAUGUCAGGAUAUGACUUCAAAAAAAAAAAAAAAUGAUGUCAGAAGGGACAUGGA [Design 64: Sub-opt MB] sit within?
Out: low value

In: Category of AAAAAACAUGAGGAUCACCCAUGUGAGGAUAUGAUGCGAAUAAAGAAAGAAGAAAGCAUCAGAAGGCACAUAUG [Mod of Disincluded 3 (little more stable fmn state)] , please.
Out: medium value

In: Consider AAGAAUCAAGGAUAUACAAGGAAGAAAGAAAAGAAAAGAAAACAUGAGGAUCACCCAUGUAGAAGGUGAUAGAA [EteRNA is fun!] . To which apparent KD of MS2 coat protein class does it belong?
Out: high value
